# measurement-description: Intrinsic clearance in human liver microsomes at 1 uM after 5 to 30 mins in presence of NADPH by LC-MS/MS analysis
# Type: ADME
# measurement-parameters: read-out: CLH
measurement-name: microsomal CLint at 1 µM (µL/min/mg)
Enter your answer as a number in µL/min/mg; do not include the unit.

[2H]C([2H])([2H])C(c1nccc(-c2sc(NC(=O)N3CCC[C@H]3C(N)=O)nc2C)n1)(C([2H])([2H])[2H])C([2H])([2H])[2H]
19

Consider the record given below.
Exam item: So what's the measured microsomal CLint at 1 µM for this one? `Cc1nc(NC(=O)N2CCC[C@H]2C(N)=O)sc1-c1ccnc(C(C)(C)C)n1`
Marked response: 32

----------
# measurement-description: Stability in human liver microsomes assessed as compound remaining at 5 uM measured after 1 hr in presence of alamethicin,uridine 5'-diphospho-glucuronic acid,glutathione,NADPH by capillary-HPLC/MS analysis (reference value: 96.3 %)
# Format: ADME
# measurement-parameters: read-out: Stability
measurement-name: remaining at 1 h, 5 µM (%)
Unit % implied. Number only.

Exam item: If you can, please state the reported remaining at 1 h, 5 µM value of `Cc1nc(NC(=O)N2CCC[C@H]2C(N)=O)sc1-c1ccnc(C(C)(C)C)n1` .
Marked response: 90.8

----------
# measurement-description: Tmax in Sprague-Dawley rat at 1 mg/kg, iv or 3 mg/kg, po administered in cassette mode
# Assay type: ADME, organism-based
# measurement-parameters: in vivo
measurement-name: Tmax (min)
Report the value in min with no unit label.

Cc1nc(NC(=O)N2CCC[C@H]2C(N)=O)sc1-c1ccnc(C(C)(C)C)n1
18

Exam item: May I ask what Tmax has been recorded for `[2H]C([2H])([2H])C(c1nccc(-c2sc(NC(=O)N3CCC[C@H]3C(N)=O)nc2C)n1)(C([2H])([2H])[2H])C([2H])([2H])[2H]` ?
Marked response: 18

----------
Listed here: items and their measured Vd.
# measurement-description: Volume of distribution at steady state in Sprague-Dawley rat at 1 mg/kg, iv or 3 mg/kg, po administered in cassette mode measured up to 48 hrs
# Format: ADME, organism-based
# measurement-parameters: in vivo, read-out: Vdss
Provide the measurement as a number trailed by its unit.

[2H]C([2H])([2H])C(c1nccc(-c2sc(NC(=O)N3CCC[C@H]3C(N)=O)nc2C)n1)(C([2H])([2H])[2H])C([2H])([2H])[2H]
1.4 L/kg

Exam item: Field request: Vd | item: `Cc1nc(NC(=O)N2CCC[C@H]2C(N)=O)sc1-c1ccnc(C(C)(C)C)n1`
Marked response: 1.2 L/kg

----------
# measurement-description: AUC (0 to 24 hrs) in Harlan nude mouse plasma xenografted with Rat1 cells expressing myr-p110alpha at 50 mg/kg, po qd administered for 8 days measured post last dose
# Type: ADME, organism-based
# Set-up: time < 24 hr, dose 50 mg/kg, route oral
measurement-name: AUC at 24 h (µM·h)
State just the number; it will be interpreted in µM·h.

Exam item: Please report the recorded AUC at 24 h for `Cc1nc(NC(=O)N2CCC[C@H]2C(N)=O)sc1-c1ccnc(C(C)(C)C)n1` .
Marked response: 65

----------
# measurement-description: Dose normalized AUC in Sprague-Dawley rat at 3 mg/kg, po administered in cassette mode measured up to 48 hrs
# Type: ADME, organism-based
# measurement-parameters: in vivo
measurement-name: AUC/dose (nM·kg·h/mg)
Express your answer in nM·kg·h/mg, writing the number without its unit.

[2H]C([2H])([2H])C(c1nccc(-c2sc(NC(=O)N3CCC[C@H]3C(N)=O)nc2C)n1)(C([2H])([2H])[2H])C([2H])([2H])[2H]
1490

Turning now to a further compound:
Exam item: Fill blank: measured AUC/dose of the compound `Cc1nc(NC(=O)N2CCC[C@H]2C(N)=O)sc1-c1ccnc(C(C)(C)C)n1` is ____.
Marked response: 527
